Recorded values, source patent US11149018B2.

# Measured On: FP receptor (Homo sapiens (Human))
# Sequence (P43088 whole entry): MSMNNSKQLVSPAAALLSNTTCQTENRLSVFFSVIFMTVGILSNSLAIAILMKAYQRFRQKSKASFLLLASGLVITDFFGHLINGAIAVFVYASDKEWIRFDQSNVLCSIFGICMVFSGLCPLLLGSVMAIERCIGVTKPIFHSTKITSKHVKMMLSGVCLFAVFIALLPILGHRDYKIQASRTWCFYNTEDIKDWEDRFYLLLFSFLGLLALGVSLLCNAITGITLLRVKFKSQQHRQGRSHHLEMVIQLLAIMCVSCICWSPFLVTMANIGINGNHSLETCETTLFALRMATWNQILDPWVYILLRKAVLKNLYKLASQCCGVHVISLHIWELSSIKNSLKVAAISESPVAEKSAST
# Method Notes: In vitro test of inhibition of human FP receptor activity (PGF2α-induced calcium flux in FP-expressing CHEM1 cells)
# Study Conditions: PGF2α 2 nM, some mean values of multiple determinations
Assay Readout: IC50 (nM)

> print(dat)
                                   molecule  assay.readout  unit.abbrev  reported.value
1  CCC1CCCN(c2nc3ccc(Br)cc3c(C(=O)NCC(CCC(=O)O)c3ccccc3Cl)c2C)C1 (racemic) [Example 57]           IC50           nM            0.84

I. Cc1c(N2CCCC(C(C)C)C2)nc2ccc(Br)cc2c1C(=O)NCC(CCC(=O)O)c1ccccc1Cl (stereo not shown)
II. Cc1c(N2CCCO2)nc2ccc(Br)cc2c1C(=O)NCC(CCC(=O)O)c1ccccc1Cl (single isomer, unassigned; (+)) [Example 40]
III. Cc1c(N2CCCC(F)C2)nc2ccc(Br)cc2c1C(=O)NCC(CCC(=O)O)c1c(F)cccc1F (stereo not shown)
IN: Arrange the 3 molecules by rising IC50, starting with the smallest. Put the labels in the order asked and list them.
OUT: I, III, II

---

# Measured On: FP receptor (Homo sapiens (Human))
# Method Notes: In vitro test of inhibition of human FP receptor activity (PGF2α-induced calcium flux in FP-expressing CHEM1 cells)
# Study Conditions: PGF2α 2 nM, some mean values of multiple determinations
# Protocol: B-1. In Vitro Test of Inhibition of Human FP Receptor Activity For the characterization of test substances in respect of FP antagonism, PGF2α-induced calcium flux in FP-expressing CHEM1 cells (Millipore, HTS093C) was used. 10 μl of the prediluted substance solution are added to the Fluo-8-laden cells and incubated at 37° C., 5% CO2 for 10 minutes. […]
pIC50: −log10 of the molar value.
Assay Readout: pIC50

P. CCC1CCCN(c2nc3ccc(Br)cc3c(C(=O)NCC(CCC(=O)O)c3cc(F)ccc3F)c2C)C1 (single isomer, unassigned; (+)) [Example 228]
Q. Cc1c(N2CCCO2)nc2ccc(Br)cc2c1C(=O)NCC(CCC(=O)O)c1ccccc1Cl (racemic) [Example 38]
R. Cc1c(N2CCCC(C)C2)nc2ccc(Br)cc2c1C(=O)NCC(CCC(=O)O)c1ccccc1C(F)(F)F (single isomer, unassigned; (+)) [Example 197]
IN: Lab note: order the above by reported pIC50, lowest first, highest last. Put the labels in the order asked and list them.
OUT: Q, R, P
(Q: 6.96, R: 7.68, P: 8.96)

---

# Measured On: UniProtKB P43088
# Method Notes: In vitro test of inhibition of human FP receptor activity (PGF2α-induced calcium flux in FP-expressing CHEM1 cells)
# Type: cell-based
# Study Conditions: PGF2α 2 nM, some mean values of multiple determinations
pIC50: −log10 of the molar value.
Assay Readout: pIC50

Worked examples follow.
> print(dat)
                                   molecule  reported.value
1  CCC1CCCN(c2nc3ccc(Br)cc3c(C(=O)NCC(CCC(=O)O)c3ccccc3OC(F)(F)F)c2C)C1 (stereo not drawn) [Example 139]            8.82
2  Cc1c(N2CCCC3(CC3)C2)nc2ccc(Br)cc2c1C(=O)NCC(CCC(=O)O)c1ccccc1Cl (racemic)            7.62
3  Cc1c(N2CCCCC2)nc2ccc(Br)cc2c1C(=O)NCC(CCC(=O)O)c1cc(F)ccc1Cl (racemic) [Example 5]            8.03
4  Cc1c(N2CCCC(F)(F)C2)nc2ccc(Br)cc2c1C(=O)NCC(CCC(=O)O)c1ccccc1C(F)(F)F (single isomer, unassigned; (+)) [Example 119]            7.85

1. Cc1ccccc1C(CCC(=O)O)CNC(=O)c1c(C)c(N2CCCC2)nc2ccc(Br)cc12 (single isomer, unassigned; (-)) [Example 234]
2. Cc1c(N2CCCCC2)nc2ccc(Br)cc2c1C(=O)NCC(CCC(=O)O)c1cc(F)ccc1F (racemic) [Example 255]
IN: Hi there! Just curious which has the higher pIC50 between 1 and 2 . Mark your answer with the label of the selected entry.
OUT: 1
